test: small-molecule microarray binders of probe aXIP, primary screen, biochemical, NeuroSMM set, 635/667 nm fluorescence (AID 1119); conditions: higher = more signal, called active from +8 up or from −8 down;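 further: probe is the protein aXip251-270 applied at 1 µg/mL to compound-printed slides; binding of probe to printed compounds measured as 667 nm fluorescence plus signal to noise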
Active and inactive are the calls of the source.
Catalogue of compounds with associated composite Z-score

The following compounds have reported results that may help.
1) Cc1ccc(C(C)CC(O)C2C=CC3C(=O)N(c4ccccc4)C(=O)C3N2Nc2ccc(C#N)cc2)o1 (configuration not stated) :: -0.102 (inactive)
2) COCCOC(=O)N1C(=O)[C@@]2(c3cc(C#CCCO)ccc31)[C@H](c1ccccc1OCCO)N1[C@H](c3ccccc3)[C@H](c3ccccc3)OC(=O)[C@H]1[C@@H]2C(=O)N1CCCCCCC1 :: 0.358 (inactive)
3) O=C(O)[C@H]1C[C@H]2C(=O)N[C@@H](Cc3ccccc3)C(=O)N2[C@H]1c1cccc(OCCO)c1 :: 0.309 (inactive)
4) CN1C(=O)C2C(C1=O)C1C=C(CCCO)C2C(c2cccs2)N1Cc1cc2c(cc1Br)OCO2 (configuration not stated) :: 1.13 (inactive)
5) O=C1C2C=CC(C(O)c3ccc4c(c3)OCO4)N(Nc3ccccc3)C2C(=O)N1c1ccccc1 (configuration not stated) :: 0.348 (inactive)

Request: # input compound: COc1ccc(C(O)C2C=CC3C(=O)N(c4ccccc4)C(=O)C3N2Nc2ccc(C(C)C)cc2)c2ccccc12 (configuration not stated) ; wanted: its composite Z-score
Response: 0.0396 (inactive)

Request: # input compound: `COCCOC(=O)N1C(=O)[C@@]2(c3cc(C#CCNC(N)=O)ccc31)[C@H](c1ccc(O)cc1)N1[C@H](c3ccccc3)[C@H](c3ccccc3)OC(=O)[C@H]1[C@@H]2C(N)=O` ; wanted: its composite Z-score
Response: -1.03 (inactive)

----------
target: Alpha-bungarotoxin (Bungarus multicinctus) (UniProt P60615); experiment: alpha-bungarotoxin binders on microarray, profiling panel, artefact control for SMM control protein annotation, biochemical, small-molecule microarray, Alexa647 label, 635/667 nm fluorescence (AID 1117); conditions: alpha-BTX-A647 binding fluorescence, higher = more signal
Sequence (P60615 whole entry, looked up): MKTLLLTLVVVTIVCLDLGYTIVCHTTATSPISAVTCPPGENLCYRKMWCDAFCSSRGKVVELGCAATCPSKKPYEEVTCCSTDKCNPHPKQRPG
composite z-score below 0.5 gives No; composite z-score at or above it gives Yes.

Worked cases, answers included:
1. CCCCCN1CC=CC23O[C@@H]4C=CCOC(=O)[C@@H]4[C@H]2C(=O)N(CCO)[C@@H]3C1=O (some centres undefined) :: No
2. CC(C)C(=C=CC[C@@H](O)c1cccc(OCCO)c1)C[C@@H](O)c1ccccn1 :: No
3. C=C(/C(=C/C[C@@H](OC(C)=O)c1ccc(OCCO)cc1)c1cc(C(=O)OC)ccc1OC)C(C)C :: Yes
4. O=C1OCC=C[C@H]2OC34C=CCN(c5ccc6ccccc6c5)C(=O)[C@H]3N(CCCCCO)C(=O)[C@@H]4[C@@H]12 (some centres undefined) :: No
5. CN(C)C(=O)[C@@]1(Cc2ccccc2N=[N+]=[N-])N=C(c2ccc(OCCCO)cc2)O[C@H]1c1ccccc1 :: Yes

Request: Check the entry `COCCOC(=O)N1C(=O)[C@@]2(c3cc(C#Cc4ccc(OC)cc4)ccc31)[C@H](c1ccc(OCCO)cc1)N1[C@H](c3ccccc3)[C@H](c3ccccc3)OC(=O)[C@H]1[C@@H]2C(=O)Nc1nc2ccccc2s1` : does composite z-score equal or exceed 0.5?
Response: Yes

Request: Check the entry `O=C1N[C@@H](Cc2ccccc2)C(=O)N2[C@@H]1C[C@@H](C(=O)O)[C@H]2c1ccc(O)cc1` : does composite z-score equal or exceed 0.5?
Response: No

Request: Check the entry `NC(=O)[C@@H]1[C@H]2C(=O)O[C@H](c3ccccc3)[C@H](c3ccccc3)N2[C@H](c2ccc(OCCO)cc2)[C@@]12C(=O)Nc1ccc(C#CCCO)cc12` : does composite z-score equal or exceed 0.5?
Response: Yes

Request: Check the entry CC1CC/C=C\[C@H]2OC34C=CCN(C(C)(C)C)C(=O)[C@H]3N(C(CO)C(C)C)C(=O)[C@@H]4C2C(=O)O1 (some centres undefined) : does composite z-score equal or exceed 0.5?
Response: No

Request: Check the entry `CN1C(=O)[C@@H]2[C@@H](CC(COc3ccccc3)=C([C@H](O)CCc3ccccc3)[C@@H]2CO)C1=O` : does composite z-score equal or exceed 0.5?
Response: No

Request: Check the entry `O=C1O[C@H](c2ccccc2)[C@H](c2ccccc2)N2[C@H]1[C@@H](C(=O)N1CCCCCCC1)[C@]1(C(=O)Nc3ccc(C#CC4(O)CCCCCC4)cc31)[C@H]2c1ccc(O)cc1` : does composite z-score equal or exceed 0.5?
Response: Yes

Request: Check the entry `COc1ccc([Si](C)(C)[C@@H]2[C@@H](CCn3cc([C@H](O)c4ccccc4)nn3)O[C@]3(C(=O)N(c4ccccc4)c4ccccc43)[C@H]2C)cc1` : does composite z-score equal or exceed 0.5?
Response: No

Request: Check the entry `COc1ccc(CCNC(=O)[C@@]2(Cc3ccccc3I)c3ccccc3C(=O)N(Cc3ccccc3Cl)[C@H]2c2ccc(CO)cc2)cc1` : does composite z-score equal or exceed 0.5?
Response: No
